METHOD_SUMMARY: NCI Yeast Anticancer Drug Screen. Data for the bub3 strain (AID 167)
MEASUREMENT_CONDITIONS: S. cerevisiae bub3 mutant strain, at 50.0 µM (retest, dose inferred, filed as 5.0), stronger effect = higher value
Compounds without any hit were thinned out: in the full panel of roughly 79,000, 15% have a hit.
PROPERTY: growth inhibition (%)
One number for each entry, in %.

Example results:
INSERT INTO assay_data (compound, quantitative_readout) VALUES
  ('CCOP(=O)(OCC)/C(C#N)=C/c1ccc(Oc2ccccc2)cc1', 94),
  ('OC(C1CCCC1=N/N=C1/CCCC1C(O)(C(F)(F)Cl)C(F)(F)Cl)(C(F)(F)Cl)C(F)(F)Cl (configuration not stated)', 11),
  ('COc1cc2c(c(OC)c1OC)-c1ccc(=O)c(OC)cc1[C@@H](N)CC2', 19),
  ('O=c1oc(-c2ccc(Cl)cc2[N+](=O)[O-])nc2ccccc12', 6);

Hi, could you look up growth inhibition for each item in my list?
1. COc1ccc(C2=C/C(=C3\C(=O)Oc4ccccc4C3=O)SS2)cc1
2. O=C(NO)Nc1nc(Cl)c(Cl)nc1Cl
3. CNS(=O)(=O)c1ccccc1C=C(c1ccccc1)c1ccccc1
4. CCCCCCCCCCCCCCCCOC(=O)C[n+]1ccc(C(N)=O)cc1

### Response
1: 24; 2: 98; 3: 92; 4: 97

---

METHOD_SUMMARY: NCI Yeast Anticancer Drug Screen. Data for the bub3 strain (AID 167)
MEASUREMENT_CONDITIONS: S. cerevisiae bub3 mutant strain, at 50.0 µM
About 79,000 compounds went through this panel and 15% of them were active in at least one assay; those are over-represented in the sample as a whole. Active and inactive are the calls of the source. Cut-off read from the data, not from the text of the source: active = growth inhibition above about 70%; inactive = the rest.
Bench note: report the call from active, inactive

Completed entries (count: 4):
INSERT INTO assay_data (molecule, group_label) VALUES
  ('COc1ccc(C(=O)C(C(c2ccccc2)N2CCc3ccccc3C2)N2CCc3ccccc3C2)cc1 (centres undefined)', 'active'),
  ('CCn1c(C)cc(=O)n1-c1ccc([N+](=O)[O-])cc1', 'inactive'),
  ('Clc1nc(Cl)c(Cc2ccccc2)c(Cl)n1', 'active'),
  ('C[CH2][Ge]([CH2]C)[CH2]C.C[CH2][Ge]([Cl])[CH2]C.C[CH2][Ge][CH2]C', 'active');

### Prompt Which outcome did this test record for the molecule "CC(=NCC(=O)O)c1ccccc1" ?
### Response inactive

### Prompt Follow-up item: "NCCNCCNCc1c2ccccc2c(CNCCNCCN)c2ccccc12"
### Response inactive

---

METHOD_SUMMARY: NCI Yeast Anticancer Drug Screen. Data for the mlh1 rad18 strain (AID 175)
MEASUREMENT_CONDITIONS: S. cerevisiae mlh1 rad18 strain growth inhibition; at 50.0 µM; stronger effect = higher value
The panel holds about 79,000 compounds, 15% with a hit somewhere; the sample as a whole holds those more often.
Kindly supply the reported growth inhibition values for the records listed here.
One number for each entry, in %.

Worked cases, answers included:
INSERT INTO measurements (compound, quantitative_readout) VALUES
  ('O=C1C2CCCC3CCCC(C(=O)N1O)C32 (stereo not drawn)', 90.3),
  ('C1=C(CC2=C[P+](c3ccccc3)(c3ccccc3)C=C(c3ccccc3)O2)OC(c2ccccc2)=C[P+]1(c1ccccc1)c1ccccc1', 90.8);

### Prompt Please report the recorded growth inhibition for CCCCCCCCCCN(CCCCCCCCCC)C1CC(OC2CC(O)(C(O)CO)Cc3c(O)c4c(c(O)c32)C(=O)c2c(OC)cccc2C4=O)OC(C)C1O (stereo not drawn) .
### Response 90.5

Numbers sourced from PubChem BioAssay (NCI).
